This collection of values is drawn from paper PMC10998383.

- assay system: mushroom tyrosinase (Agaricus bisporus, UniProt C7FF04)
- Sequence (C7FF04 1-392): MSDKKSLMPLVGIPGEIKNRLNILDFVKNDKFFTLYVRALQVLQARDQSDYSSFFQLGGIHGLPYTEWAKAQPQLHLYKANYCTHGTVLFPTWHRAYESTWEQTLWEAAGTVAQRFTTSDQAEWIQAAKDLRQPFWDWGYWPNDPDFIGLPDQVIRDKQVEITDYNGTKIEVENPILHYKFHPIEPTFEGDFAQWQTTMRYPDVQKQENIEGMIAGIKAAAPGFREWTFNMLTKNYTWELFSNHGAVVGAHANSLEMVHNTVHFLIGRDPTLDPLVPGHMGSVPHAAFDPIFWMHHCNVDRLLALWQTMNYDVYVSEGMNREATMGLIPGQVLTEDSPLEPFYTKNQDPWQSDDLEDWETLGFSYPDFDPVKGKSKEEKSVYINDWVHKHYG
- assay details: Mushroom tyrosinase inhibitory assay with L-dopa as substrate;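 also: enzyme activity followed as absorbance change at 475 nm in phosphate buffer pH 6.8, monitored continuously, IC50 derived from percent inhibition dose–response curves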
- Assay type: biochemical
Would you kindly list IC50 for each of these compounds?
Numbers only, in µM.

Previously resolved entries follow.
- O=C(OCCN1CCN(c2ccc([N+](=O)[O-])cc2)CC1)c1cc2ccccc2[nH]1 [Compound 4l]: 72.5
- O=C(OCCN1CCN(c2ccc([N+](=O)[O-])cc2)CC1)c1cccnc1 [Compound 4k]: 82.7
- O=C(Cc1ccccc1)OCCN1CCN(c2ccc([N+](=O)[O-])cc2)CC1 [Compound 4i]: 184
- COc1ccc(C=O)c(C(=O)OCCN2CCN(c3ccc([N+](=O)[O-])cc3)CC2)c1OC [Compound 4h]: 201

// moving on: another record for IC50
Requested read-out IC50, target or system mushroom tyrosinase (Agaricus bisporus, UniProt C7FF04), entry O=C(OCCN1CCN(c2ccc([N+](=O)[O-])cc2)CC1)c1ccccc1 [Compound 4a]
175
